Target: purified PhnO protein (Escherichia coli, UniProt P16691, P2A)
Construct: made in house; host or cells: E. coli JM101 carrying pMON15032 (recA promoter, nalidixic acid induction)
Sequence (P16691 whole entry P2A): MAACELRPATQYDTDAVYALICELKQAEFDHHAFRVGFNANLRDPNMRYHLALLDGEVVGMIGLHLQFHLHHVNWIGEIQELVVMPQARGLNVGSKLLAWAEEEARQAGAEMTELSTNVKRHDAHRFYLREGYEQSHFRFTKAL
Assay: AMPA transacylase acyl-CoA acyl donor specificity, HPLC
Assay type: biochemical, E. coli
Conditions: acyl donor 1 mM, 5 minutes 30° C.
Protocol: PhnO was purified from a one liter Luria Bertani broth culture of E. coli JM101 expressing a recombinant phnO gene from pMON15032 after nalidixic acid induction for three hours at 37° C. […] Forty 9 ml fractions were collected from the column eluate, and thirty microliters of each fraction was analyzed by western blot using anti-PhnO antiserum after resolution on a 15% SDS-PAGE gel. […]

>  <molecule>
C/C=C/C(=O)SCCNC(=O)CCNC(=O)[C@H](O)C(C)(C)COP(=O)(O)OP(=O)(O)OC[C@H]1O[C@@H](n2cnc3c(N)ncnc32)[C@H](O)[C@@H]1OP(=O)(O)O

>  <[^14C]-AMPA % Conversion (%)>
0.00

$$$$
>  <molecule>
CC(C)(COP(=O)(O)OP(=O)(O)OC[C@H]1O[C@@H](n2cnc3c(N)ncnc32)[C@H](O)[C@@H]1OP(=O)(O)O)[C@@H](O)C(=O)NCCC(=O)NCCSC(=O)CCCC(=O)O

>  <[^14C]-AMPA % Conversion (%)>
0.57

$$$$
>  <molecule>
CC(C)C(=O)SCCNC(=O)CCNC(=O)[C@H](O)C(C)(C)COP(=O)(O)OP(=O)(O)OC[C@H]1O[C@@H](n2cnc3c(N)ncnc32)[C@H](O)[C@@H]1OP(=O)(O)O

>  <[^14C]-AMPA % Conversion (%)>
0.00

$$$$
>  <molecule>
CC(C(=O)O)C(=O)SCCNC(=O)CCNC(=O)[C@H](O)C(C)(C)COP(=O)(O)OP(=O)(O)OC[C@H]1O[C@@H](n2cnc3c(N)ncnc32)[C@H](O)[C@@H]1OP(=O)(O)O (stereo partly shown)

>  <[^14C]-AMPA % Conversion (%)>
2.21

$$$$
>  <molecule>
C/C=C(\C)C(=O)SCCNC(=O)CCNC(=O)[C@H](O)C(C)(C)COP(=O)(O)OP(=O)(O)OC[C@H]1O[C@@H](n2cnc3c(N)ncnc32)[C@H](O)[C@@H]1OP(=O)(O)O

>  <[^14C]-AMPA % Conversion (%)>
0.99

$$$$
>  <molecule>
CCNC(=O)CCNC(=O)[C@H](O)C(C)(C)COP(=O)(O)OP(=O)(O)OC[C@H]1O[C@@H](n2cnc3c(N)ncnc32)[C@H](O)[C@@H]1OP(=O)(O)O

>  <[^14C]-AMPA % Conversion (%)>
0.52

$$$$
>  <molecule>
CCCCC(=O)SCCNC(=O)CCNC(=O)[C@H](O)C(C)(C)COP(=O)(O)OP(=O)(O)OC[C@H]1O[C@@H](n2cnc3c(N)ncnc32)[C@H](O)[C@@H]1OP(=O)(O)O

>  <[^14C]-AMPA % Conversion (%)>
0.33

$$$$
>  <molecule>
CC(C)(COP(=O)(O)OP(=O)(O)OC[C@H]1O[C@@H](n2cnc3c(N)ncnc32)[C@H](O)[C@@H]1OP(=O)(O)O)[C@@H](O)C(=O)NCCC(=O)NCCSC(=O)CCC(=O)O

>  <[^14C]-AMPA % Conversion (%)>
1.56

$$$$
>  <molecule>
CCC(=O)SCCNC(=O)CCNC(=O)[C@H](O)C(C)(C)COP(=O)(O)OP(=O)(O)OC[C@H]1O[C@@H](n2cnc3c(N)ncnc32)[C@H](O)[C@@H]1OP(=O)(O)O

>  <[^14C]-AMPA % Conversion (%)>
100.00

$$$$
>  <molecule>
CC(=O)SCCNC(=O)CCNC(=O)[C@H](O)C(C)(C)COP(=O)(O)OP(=O)(O)OC[C@H]1O[C@@H](n2cnc3c(N)ncnc32)[C@H](O)[C@@H]1OP(=O)(O)O

>  <[^14C]-AMPA % Conversion (%)>
100.00

$$$$
